From: patent US20130251703A1

measured.target: T1, Cyno HER3: CD33-[Cyno HER3, residues 20-643]-TAG (cynomolgus monkey, UniProt G7PIG5 20-643)
T1 construct: also called cy HER3-Tag; not shown: C-terminal TAG (e.g. FLAG TAG)
protocol.description: solution equilibrium titration (SET), IgG, ECL read-out
property.label: Kd (nM)
Give bare numbers, in nM.

binder	property.label	obs.value
MOR12604 (antibody, V domains shown, Tested as IgG) VH: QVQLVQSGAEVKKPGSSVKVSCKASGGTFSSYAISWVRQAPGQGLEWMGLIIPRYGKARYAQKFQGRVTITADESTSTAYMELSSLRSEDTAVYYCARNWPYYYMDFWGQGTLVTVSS VL: DIVLTQSPATLSLSPGERATLSCRASQNIVFNLAWYQQKPGQAPRLLIYDASNRATGVPARFSGSGSGTDFTLTISSLEPEDFAVYYCQQKKSMPLTFGQGTKVEIKR	Kd	2.2

State recorded Kd for all listed binders.
1. MOR12605 (antibody, human IgG1, kappa, V domains shown, Tested as IgG) VH: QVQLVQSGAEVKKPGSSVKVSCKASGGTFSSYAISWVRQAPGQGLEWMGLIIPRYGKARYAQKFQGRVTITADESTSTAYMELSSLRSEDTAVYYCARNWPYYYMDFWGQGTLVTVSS VL: DIVLTQSPATLSLSPGERATLSCRASQNIVFNLAWYQQKPGQAPRLLIYDASNRATGVPARFSGSGSGTDFTLTISSLEPEDFAVYYCQQFRRKSNTFGQGTKVEIKR
2. MOR12515 (antibody, human IgG1, lambda, V domains shown, Tested as IgG) VH: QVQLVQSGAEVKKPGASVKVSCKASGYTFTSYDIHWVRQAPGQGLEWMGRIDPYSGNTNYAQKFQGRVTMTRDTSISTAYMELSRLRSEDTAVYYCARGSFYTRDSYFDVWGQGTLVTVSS VL: DIALTQPASVSGSPGQSITISCTGTSSDVGTYNQVSWYQQHPGKAPKLMIYGVSKRPSGVSNRFSGSKSGNTASLTISGLQAEDEADYYCYSRDSPMDQVFGGGTKLTVLG

### Response
1. 2.9
2. 0.72
